// provenance: PubChem BioAssay

test: anti-His antibody binders, primary screen, artefact control for SMM control protein annotation, biochemical, small-molecule microarray, 635 nm fluorescence (AID 1128); conditions: anti-His Alexa647 antibody binding, higher = more signal;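 also: score merges feature fluorescence with signal-to-noise for each printed compound spot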
# composite z-score listing for each entry below
No unit in the answer, please; the number alone is enough.

In the examples that follow, each entry is paired with its recorded composite z-score.
[[record]]
molecule = "O=C(NC1CC1)[C@@H]1c2ccccc2C(=O)N(Cc2ccccc2)[C@H]1c1ccc(CO)cc1"
parameter = "composite z-score"
result = 0.522

[[record]]
molecule = "CN(C)CCCNC(=O)[C@@H]1c2ccccc2C(=O)N(Cc2ccc(OC(F)(F)F)cc2)[C@H]1c1ccc(CO)cc1"
parameter = "composite z-score"
result = 0.21

[[record]]
molecule = "COc1ccc(C(O)C2C=CC3C(=O)N(Cc4ccccc4)C(=O)C3N2n2cnnc2)c2ccccc12 (configuration not stated)"
parameter = "composite z-score"
result = 0.727

[[record]]
molecule = "C=CC[C@]12N=C(c3ccc(OCCCO)cc3)O[C@H]1c1ccccc1N(C)C2=O"
parameter = "composite z-score"
result = 2.7

[[record]]
molecule = "COCCOC(=O)N1C(=O)[C@@]2(c3cc(C#Cc4ccc(OC)cc4)ccc31)[C@H](C(=O)N1CCN(c3ncccn3)CC1)[C@H]1C(=O)O[C@H](c3ccccc3)[C@H](c3ccccc3)N1[C@@H]2c1ccccc1OCCO"
parameter = "composite z-score"
result = 2.03

[[record]]
molecule = "CN1C(=O)C2C=CC(C(O)C3CCCCC3)N(N3CCCCC3)C2C1=O (configuration not stated)"
parameter = "composite z-score"
result = 1.18


# evaluate next
Query block: composite z-score for [N-]=[N+]=Nc1ccccc1[C@@H]1OC(c2ccc(OCCCO)cc2)=N[C@]1(CCS(=O)(=O)c1ccccc1)C(=O)NCCN1CCOCC1 ?
Result block: 0.903
